TARGET DESC: LYP/PTPN22 (Homo sapiens)
Construct: catalytic domains of LYP (aa 2-309) and PTP-PEST (aa 2-323, PEST); 6xHis (N, cleaved yes); made in house; host or cells: E. coli BL21
Sequence (Q9Y2R2 2-309): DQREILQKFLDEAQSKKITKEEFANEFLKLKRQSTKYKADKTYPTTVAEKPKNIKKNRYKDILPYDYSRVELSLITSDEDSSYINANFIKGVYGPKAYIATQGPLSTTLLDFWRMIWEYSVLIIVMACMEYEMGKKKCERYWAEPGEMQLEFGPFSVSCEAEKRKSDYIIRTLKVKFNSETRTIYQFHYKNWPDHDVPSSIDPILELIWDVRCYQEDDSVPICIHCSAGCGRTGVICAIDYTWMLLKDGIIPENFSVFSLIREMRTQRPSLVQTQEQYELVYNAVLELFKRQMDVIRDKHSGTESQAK
ASSAY PROTOCOL: biochemical
COND: selectivity, ratio PEST IC50 / LYP IC50, Table IV
MEASUREMENT KIND: PEST_LYP
// no unit string in output, number only

// below: answered compounds
In [3]: df
Out[3]:
                              smiles_string                target_desc  measured_value
0  Cc1cc(C)c2[nH]c(=O)c([C@H](c3nnnn3C3CCCC3)N3CCC[C@@H](C)C3)cc2c1  LYP/PTPN22 (Homo sapiens)            1.15
1  Cc1ccc2[nH]c(=O)c([C@@H](c3nnnn3Cc3ccccc3)N3CCCC4(CCCCC4)C3)cc2c1  LYP/PTPN22 (Homo sapiens)            1.36
2  CCC(C)(C)n1nnnc1[C@@H](c1cc2cccc(C)c2[nH]c1=O)N1CCCC2(CCCCC2)C1  LYP/PTPN22 (Homo sapiens)            0.96

Now turn to the next compound.
[ask] Quick check: PEST_LYP of CCC(C)(C)n1nnnc1[C@@H](c1cc2cc(C)cc(C)c2[nH]c1=O)N1CCCC2(CCCCC2)C1 ?
[reply] 1.69

Ref: patent US20100210836A1
